- System: U2OS
- TEST_DESCRIPTION: Multiplex assay against U2OS
- Format: toxicity, cell-based
- MEASUREMENT_CONTEXT: human, 24 h, 10 µM, compound concentration 10 uM, replicate 2
Give MET when the value for Population Pyknosed Nuclei (%) is at least 20%. Give NOT MET when it is less.

Input: # check: Population Pyknosed Nuclei (%) of "CN1CCN(CCOc2cc(OC3CCOCC3)c3c(Nc4c(Cl)ccc5c4OCO5)ncnc3c2)CC1" is greater than or equal to 20%
Output: MET

Input: Reported Population Pyknosed Nuclei (%) at or above 20%? "Cc1csc2c(N[C@@H](C)CN3CCN(S(=O)(=O)c4ccc(Cl)c(Cl)c4)CC3)ncnc12"
Output: MET

Input: Does "CN(C)C(=O)/C(C#N)=C/c1ccc(-c2nc3cnc4[nH]ccc4c3n2C2CCCCC2)o1" have a reported Population Pyknosed Nuclei (%) of at least 20%?
Output: NOT MET

Input: Does the reported Population Pyknosed Nuclei (%) for CC(C)NCC(O)COc1ccc(CCOCC2CC2)cc1.Cl (stereo not given) [BETAXOLOL HYDROCHLORIDE] fall at or above the 20% mark?
Output: NOT MET

Input: Test whether the molecule "CC(C)(O)CNc1ncc(-c2ccnc(Nc3ccnc(Cl)c3)n2)c(CC2CC2)n1" records Population Pyknosed Nuclei (%) of 20% or higher.
Output: MET

Input: Is reported Population Pyknosed Nuclei (%) greater than or equal to 20% here: "COc1cc2nccc(Oc3ccc(NC(=O)Nc4cc(C)on4)c(Cl)c3)c2cc1OC.O"
Output: MET

Input: In plain terms: is recorded Population Pyknosed Nuclei (%) at least 20% for O=C1NCN(c2ccccc2)C12CCN(CCCOc1ccc(F)cc1)CC2 [SPIRAMIDE] ?
Output: NOT MET

Input: Quick check: does "CN(C)CC#Cc1ccc(OCCCc2sc(N3CCc4cccc(C(=O)Nc5nc6ccccc6s5)c4C3)nc2C(=O)O)c(F)c1" have Population Pyknosed Nuclei (%) greater than or equal to 20%?
Output: MET

Input: # check: Population Pyknosed Nuclei (%) of CN1CCCC(n2nc(Cc3ccc(Cl)cc3)c3ccccc3c2=O)CC1.Cl (stereo not given) [AZELASTINE HYDROCHLORIDE] is greater than or equal to 20%
Output: MET

* * *

Please go through the items and note down their Total Cell Count.
- Tested on: U2OS
- TEST_DESCRIPTION: Multiplex assay against U2OS
- Assay type: toxicity, cell-based
- MEASUREMENT_CONTEXT: human, 48 h, 1 µM, compound concentration 1 uM, replicate 2
Output: the number by itself.

I looked up "COc1cc(-n2cnc3cc(-c4ccc(Cl)cc4)sc3c2=O)ccc1OCCN1CCCC1" and its Total Cell Count for U2OS was 79

Form field, Total Cell Count with U2OS, item "CN1CCN(c2ccc(OC(F)(F)F)c(Nc3ncc4c(n3)-c3c(c(C(N)=O)nn3CCO)CC4)c2)CC1" : 97

Observed Total Cell Count, U2OS, "C=CC(=O)Nc1cccc(C(=O)Nc2ccc(Nc3cc(-c4[nH]c(SC)nc4C)ccn3)cc2)c1" : 117

Measured Total Cell Count (U2OS), entry O=C1NCN(c2ccccc2)C12CCN(CCCOc1ccc(F)cc1)CC2 [SPIRAMIDE] : 106

Observed Total Cell Count, U2OS, "Cn1cc(-c2[nH]c3cc(NC(=O)[C@H](N)C4CCCCC4)cc4c3c2C=NNC4=O)cn1" : 56

Reported Total Cell Count (U2OS) for entry "c1cn2cc(-c3ccc4cn[nH]c4c3)nc(Nc3ccc(N4CCOCC4)cc3)c2n1" is 111

Tested on U2OS: "Cc1cc(C)cc(-c2cnc3cc(Cl)c(-c4cccc(O)c4)cc3c2OCCCN)c1" . Observed Total Cell Count: 73

Response field Total Cell Count (U2OS) for item "CC[C@H](C)C(=O)O[C@H]1C[C@@H](C)C=C2C=C[C@H](C)[C@H](CC[C@@H]3C[C@@H](O)CC(=O)O3)[C@H]21" : 89

Field Total Cell Count (system: U2OS) for entry Cl.N#Cc1ccc2[nH]cc(CCCCN3CCN(c4ccc5oc(C(N)=O)cc5c4)CC3)c2c1 [VILAZODONE HYDROCHLORIDE] = 49

Log: U2OS, molecule "CN(C)CC#Cc1ccc(OCCCc2sc(N3CCc4cccc(C(=O)Nc5nc6ccccc6s5)c4C3)nc2C(=O)O)c(F)c1" , Total Cell Count = 117
